Assay procedure: protein stability index of a GFP-peptide fusion (yeast GPS) (PSI 1-4); higher = more stable; sorted into four equal gates, so the index is relative within each strain
Measurement context: pdr5∆
Quick rule for you: protein stability index at 2 or higher means YES, lower means NO.

Entry AQSSHIRAIRKVISEIL [RPS1A] : is its protein stability index no less than 2?
NO

Entry ILSLATEGCIGLSQTEA [MCD1] : is its protein stability index no less than 2?
YES

Entry LTNGVTEHVRQNAKLLA [RRP6] : is its protein stability index no less than 2?
NO

Continuing:
Entry YGVSFFTIQSFVSSLSN [BRR2] : is its protein stability index no less than 2?
NO

Entry KRAEKAARKAEKAKSAG [RPL24B] : is its protein stability index no less than 2?
YES

---

Assay procedure: protein stability index of a GFP-peptide fusion (yeast GPS) (PSI 1-4); higher = more stable; sorted into four equal gates, so the index is relative within each strain
Measurement context: ubr1∆
Attribute measured: protein stability index
Number, no unit, nothing else.

// below: answered sequences
Name the recorded protein stability index for VLLVEKYGAEYDLVDNK [NAS6] .
3

Name the recorded protein stability index for DFTQEDELRKQELISKA [ISW2] .
3.09

Continuing:
Name the recorded protein stability index for SAKMILLSDPTITIKSY [PRP8] .
2.92

---

protein stability index by entry:
Assay procedure: protein stability index of a GFP-peptide fusion (yeast GPS) (PSI 1-4); higher = more stable; sorted into four equal gates, so the index is relative within each strain
Measurement context: san1∆
Number, no unit, nothing else.

// below: answered sequences
Name the recorded protein stability index for SVIPEVDREAMLKPNII [YCG1] .
3.08

Name the recorded protein stability index for GSSAGMNGRSLTYAQQQ [SNF6] .
3.03

Name the recorded protein stability index for QESLLSRTFDKYSKLVD [SRP72] .
2.99

Continuing:
Name the recorded protein stability index for LAFKKNEMLLKRVTKVK [MTW1] .
2.31

Name the recorded protein stability index for SEKQNDEEAAGASTVMK [PRP8] .
3.38

Name the recorded protein stability index for SRILYKAIRGMVSHKTA [RPL16B] .
1.22

Name the recorded protein stability index for HPWEQAKEVKVLYHTSG [PRP8] .
3.03

Name the recorded protein stability index for FLERKCVHMVYEYAEHD [SSN3] .
1.69

Name the recorded protein stability index for FAVIYLCDIDEVSDFDE [DIB1] .
1.51

Name the recorded protein stability index for TGIFMAMHYSSNIELAF [COB] .
1.24

Name the recorded protein stability index for VLNEDDLAFGGEANKHH [RPN5] .
3.25

Name the recorded protein stability index for GGTNEDDFTDAIQFVKE [YCS4] .
3.39

Name the recorded protein stability index for IGQLIGEVMKELSEEKY [RPT4] .
3.44

---

Assay procedure: protein stability index of a GFP-peptide fusion (yeast GPS) (PSI 1-4); higher = more stable; sorted into four equal gates, so the index is relative within each strain
Measurement context: pdr5∆
protein stability index by entry:
Number, no unit, nothing else.

Name the recorded protein stability index for LLTCYELEKKYHGNECE [SRB8] .
3

Name the recorded protein stability index for KPNNTANTGGGLFGANS [YGL172W/NUP49] .
3.28

Name the recorded protein stability index for VEISLVNGAKNLVVSGP [FAS1] .
2.6

Name the recorded protein stability index for DLKDILEKVVPLINVVV [BRR2] .
1.91

Name the recorded protein stability index for KSGRINGFHGRLGDLGV [SMC4] .
3.43

Continuing:
Name the recorded protein stability index for AASFKKLYKTPIPIPAF [PRE10] .
3.15

Name the recorded protein stability index for VTLDITTLTIMRILPRE [RPT4] .
2.25

Name the recorded protein stability index for VNKVPQNVAGDKTAVKL [SWP82] .
3.04

Name the recorded protein stability index for RPDIVHTVFTSVNKNKR [RPL4A] .
1.46

Name the recorded protein stability index for TTVFFSRQKSGLFDSFT [YML031W/NDC1] .
1.45

Name the recorded protein stability index for FESLYNSNDSVFVGSGK [BRR2] .
3.18

Name the recorded protein stability index for LKFAVQVDKVTKEKVNG [RPL26A] .
3.4

Name the recorded protein stability index for TKGENYQLVKTLGEQLI [FAS2] .
3.24

Data provenance is the supplement of paper PMC9732359.
